Biological target: Nuclear receptor subfamily 5 group A member 2 (Homo sapiens) (UniProt O00482)
Sequence (O00482 whole entry, looked up): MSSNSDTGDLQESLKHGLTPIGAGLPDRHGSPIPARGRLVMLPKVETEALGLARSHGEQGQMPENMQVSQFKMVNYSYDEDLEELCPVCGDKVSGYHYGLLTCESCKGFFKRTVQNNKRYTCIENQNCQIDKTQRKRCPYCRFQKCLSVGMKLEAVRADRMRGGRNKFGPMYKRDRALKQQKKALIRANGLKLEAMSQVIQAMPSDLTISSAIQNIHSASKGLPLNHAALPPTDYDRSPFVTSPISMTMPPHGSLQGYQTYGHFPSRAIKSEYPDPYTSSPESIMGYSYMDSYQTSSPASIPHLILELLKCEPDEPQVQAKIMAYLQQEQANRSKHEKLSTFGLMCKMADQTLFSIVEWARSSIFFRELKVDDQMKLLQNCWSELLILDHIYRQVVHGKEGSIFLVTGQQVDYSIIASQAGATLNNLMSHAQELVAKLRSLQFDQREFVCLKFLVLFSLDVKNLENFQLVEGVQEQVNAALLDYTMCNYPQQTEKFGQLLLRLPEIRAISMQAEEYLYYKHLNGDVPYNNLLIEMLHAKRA
Experiment: potency against LRH1-driven Cyp19 reporter – cell-based, HEK293T, Cyp19 aromatase-luciferase, luminescence, powder samples, dose response (AID 488782)
Settings: 20 h
Measured Quantity: IC50

Would you please look over these solved cases?
Sure, the documented IC50 for `O=c1cc(N2CCN(c3ccccc3)CC2)[nH]c(=O)n1C1CCCCC1` is 2600 nM

Sure, the documented IC50 for `O=c1cc(N2CCN(c3ccnc4cc(Cl)ccc34)CC2)[nH]c(=O)n1C1CCCCC1` is 4000 nM

Sure, the documented IC50 for `O=c1cc(N2CCN(c3cccc(Cl)n3)CC2)[nH]c(=O)n1C1CCCCC1` is 538 nM

Sure, the documented IC50 for `Cn1c(=O)cc(N2CCN(c3cccc(Cl)c3)CC2)[nH]c1=O` is 1100 nM

Sure, the documented IC50 for `O=c1cc(N2CCN(c3cccc(C(F)(F)F)c3)CC2)[nH]c(=O)n1C1CCCCC1` is 320 nM

Consider the record given below.
Sure, the documented IC50 for `C=CCn1c(=O)cc(N2CCN(c3cccc(C(F)(F)F)c3)CC2)[nH]c1=O` is 570 nM
